System: HT-29
procedure.text: NCI tumour cell line growth inhibition, 48 h
Activity calls are given as the source filed them. Rule as the data show it: active = GI50 up to about 1.1 µM and inactive = higher.
Would you mind answering with one of these outcomes? label 1 for active, label 0 for inactive

Please review the entries below; each comes with its answer.
Cc1ccc(C(=O)Cn2c(C(=O)/C=C/c3cccs3)nc3ccccc32)cc1 ... label 0
CCOC(=O)C(Cc1cn(S(=O)(=O)c2ccc(C)cc2)cn1)P(=O)(OCC)OCC (stereo not drawn) ... label 0
COC1CC(=O)C2C(=O)N(c3ccccc3)C(=O)C23C(C(=O)c2ccccc2)=C(C)NC13O (stereo not drawn) ... label 0

# lookup: test call for COc1ccc(CCC2NCCc3cc(OC)c(OC)cc32)cc1 (stereo not drawn)
label 0

====

Tested on: SF-295
procedure.text: NCI tumour cell line growth inhibition, 48 h
The source made the active and inactive calls. Cut-off read from the data, not from the text of the source: active = GI50 up to about 1.1 µM and inactive = higher.
Would you mind answering with one of these outcomes? true = active, false = inactive

Please review the entries below; each comes with its answer.
NC(=S)N/N=C/C(O[C@@H](/C=N/NC(N)=S)CO)n1cnc2c(N)ncnc21 (stereo partly specified) ... false
O=[N+]([O-])c1ccc(Sc2c3ccccc3nc3cc(Cl)ccc23)cc1 ... false
O=C1NC(=O)/C(=C/c2ccc(S(=O)(=O)N/N=C\C(O)C(O)C(O)C(O)CO)cc2)N1 (stereo unspecified) ... false

# lookup: test call for CC1(C)OCC[C@@H]1[Si](C)(C)C
false

# lookup: test call for CCOP(=O)(OCC)C(Cc1c[nH]c2ccccc12)C(=O)O (stereo unspecified)
false

# lookup: test call for CC1=Nc2ccccc2C12C(c1ccccc1)C(c1ccccc1)C(=O)N1c3ccccc3CC12 (stereo unspecified)
false

# lookup: test call for FC(F)(F)C1(C(F)(F)F)C2CCC3(CC(F)(F)C(F)(F)S3)C1C2 (stereo unspecified)
false

# lookup: test call for CN(NC(=O)/C(=C\c1ccco1)NC(=O)c1ccccc1)c1cn[nH]c(=O)c1Cl
false

# lookup: test call for Nc1nc2cc(Cl)ccc2n1N
false

# lookup: test call for Nc1nc(=O)n(C2CC(O)C(O)C(CO)O2)cc1F (stereo unspecified)
false

# lookup: test call for Cc1ccc(OCC(=O)N2N=C(c3ccccc3)CC2(O)c2ccccc2)cc1 (stereo unspecified)
false

# lookup: test call for C=CC(=O)N1C/C(=C\c2ccc([N+](=O)[O-])cc2)C(=O)/C(=C/c2ccc([N+](=O)[O-])cc2)C1
true

====

Tested on: SK-MEL-28
procedure.text: NCI tumour cell line growth inhibition, 48 h
Active and inactive are the calls of the source. Cut-off read from the data, not from the text of the source: active = GI50 up to about 1.1 µM and inactive = higher.
Would you mind answering with one of these outcomes? true for active, false for inactive

COc1ccc(-c2c3c([nH]c(=S)c2C#N)CC(C)(C)CC3=O)cc1 ... false

# lookup: test call for O=c1cc(-c2ccccc2)[nH]c2cccc(S)c12
true

# lookup: test call for CO[C@H](C(=O)O[C@H]1C(=O)N2CCC3CCC1C32C)c1ccccc1 (stereo partly specified)
false

# lookup: test call for Nc1nc(N)nc(CCCc2nc(N)nc(N)n2)n1
false

# lookup: test call for COC1=C(Br)[C@H](O)[C@@]2(C=C1Br)CC(C(=O)NCCCOc1c(Br)cc(C(O)CNC(C)=O)cc1Br)=NO2 (stereo partly specified)
false

# lookup: test call for CC1C(c2ccc(Cl)cc2)c2cc3c(cc2OC1N1CCOCC1)OCO3 (stereo unspecified)
false

# lookup: test call for COc1ccc2cc3c4cc(OC)c(OC)cc4ccn3c2c1
false

# lookup: test call for CC(=O)Oc1c2c(c(OC(C)=O)c3c1n(C(C)=O)c1ccccc1n3C(C)=O)n(C(C)=O)c1ccccc1n2C(C)=O
false

# lookup: test call for CCOC(=O)C1=C(c2ccccc2)N(C)c2ccccc2S1
false

# lookup: test call for CC1(C)Oc2ccccc2OC1O (stereo unspecified)
false

====

Test system: SK-MEL-28
procedure.text: NCI tumour cell line growth inhibition, 48 h
Activity calls are given as the source filed them. No stated cut-off is given here; in the data, active = GI50 up to about 1.1 µM and inactive = higher.
property.label: GI50

Here are 7 compounds. What values of GI50 were reported for them?
1. Clc1ccc(C2=C(c3ccccc3)C(c3ccc(Cl)cc3)N3C(=N[C@H]4CCCC[C@@H]43)N2)cc1 (some centres not stated)
2. CN(CCCNC(=O)c1n[nH]c2c1ccc1ccccc12)CCCNC(=O)c1n[nH]c2c1ccc1ccccc12
3. CC(C)N(C(=O)C12C3C4C5C3C1(C#N)C5C42)C(C)C (configuration not stated)
4. Fc1cccc(CSc2ncnc3c2ncn3C2CCCS2)c1 (configuration not stated)
5. O=C(NO)c1cccc(OCc2ccc(Br)cc2)c1
6. O=C1C=CC(=O)c2c(O)nc(CBr)nc21
7. COc1cc([C@@H]2c3cc4c(cc3[C@@H](NCc3ccccc3)C3COC(=O)[C@@H]32)OCO4)cc(OC)c1O (some centres not stated)

1. 13.7 µM (inactive)
2. 2.09 µM (inactive)
3. > 100 µM (inactive)
4. 18.9 µM (inactive)
5. 14.2 µM (inactive)
6. > 100 µM (inactive)
7. 25 µM (inactive)

====

System: OVCAR-3
procedure.text: NCI tumour cell line growth inhibition, 48 h
Active and inactive are the calls of the source. Rule as the data show it: active = GI50 up to about 1.1 µM and inactive = higher.
Would you mind answering with one of these outcomes? active, inactive

O=C(c1cccs1)N(C(=S)N1CCN(c2ccccc2)CC1)c1ccccc1 ... inactive
CC(=O)c1nccc2c1c(C)nc1ccccc12 ... inactive
CC(C)(Br)C(Br)CCC1(C2CO2)CO1 (centres undefined) ... inactive
Cc1cc(C)c(C(=O)/C=C/c2ccccc2)c(C)c1 ... inactive
Cc1ccc([N+](=O)[O-])cc1S(=O)(=O)Nc1ccc(C2=NN(c3ccc([N+](=O)[O-])cc3[N+](=O)[O-])C(c3ccccc3)C2)cc1 (centres undefined) ... inactive

Kindly consider the entry below.
# lookup: test call for O=c1c([Se]c2coc3ccccc3c2=O)coc2ccccc12
inactive

====

System: SNB-19
procedure.text: NCI tumour cell line growth inhibition, 48 h
Activity calls are given as the source filed them. Rule as the data show it: active = GI50 up to about 1.1 µM and inactive = higher.
Would you mind answering with one of these outcomes? class 1 for active, class 0 for inactive

O=C1CSC(c2ccc(Cl)cc2Cl)N1c1ccc(Oc2ccc(Cl)cc2)c(Cl)c1 (configuration not stated) ... class 0
Cc1[nH]c2c(c1Cc1ccccc1)C1=NC=C(O)NN1C=N2 ... class 0

# lookup: test call for N=C(c1ccc2ccccc2c1)c1ccccc1Cc1ccccc1
class 0

# lookup: test call for CCCCCCNC(=O)C1=C(C)NC(C)=C(C(=O)NCCCCCC)C1
class 0

# lookup: test call for N#CCC(=O)N/N=C1\C(=O)N(c2ccc(Cl)cc2)C(=O)C(=O)C1c1nc2ccccc2o1 (configuration not stated)
class 0

# lookup: test call for CC(C)(C)c1cc2c(O)c(c1)Cc1cc(C(C#N)(Cc3ccc4ccccc4c3)Cc3ccc4ccccc4c3)cc(c1O)Cc1cc(C(C)(C)C)cc(c1O)Cc1cc(C(C#N)(Cc3ccc4ccccc4c3)Cc3ccc4ccccc4c3)cc(c1O)C2
class 0

====

Test system: OVCAR-5
procedure.text: NCI tumour cell line growth inhibition, 48 h
Calls of active or inactive are those of the source. Rule as the data show it: active = GI50 up to about 1.1 µM and inactive = higher.
property.label: GI50

CC(C)CC(NC(=O)C(CCI)Cc1ccccc1)C(=O)Nc1ccccc1 (stereo not given) ... > 100 µM (inactive)

Here are 4 compounds. What values of GI50 were reported for them?
1. CC1(C)OCC[C@@H]1[Si](C)(C)C
2. O=C1CSC(c2ccc(Cl)cc2Cl)N1c1ccc(Oc2ccc(Cl)cc2)c(Cl)c1 (stereo not given)
3. CN(C)C(=S)N=C(Nc1ccccc1)Nc1ccccc1
4. C[C@@H](CO)C1=C(O)C(=O)c2c(ccc3c2CCCC3(C)C)C1=O

> 100 µM (inactive)
33.3 µM (inactive)
> 100 µM (inactive)
36.6 µM (inactive)

Here are 3 compounds. What values of GI50 were reported for them?
1. O=c1c([Se]c2coc3ccccc3c2=O)coc2ccccc12
2. COc1ccc2nc(-c3ccc(O)cc3)cn2c1
3. c1ccc(NC[Si]23OCCN(CCO2)CCO3)cc1

["16.2 µM (inactive)", "> 100 µM (inactive)", "> 100 µM (inactive)"]

Here are 5 compounds. What values of GI50 were reported for them?
1. Cc1ccc(NC(=O)c2cc3cc(/N=N/c4ccc(Br)cc4)ccc3oc2=O)cc1
2. COc1cccc(-c2[nH]c3cc4c(cc3c(=O)c2C(=O)O)OCO4)c1
3. CCOP(=O)(OCC)C(Cc1c[nH]c2ccccc12)C(=O)O (stereo not given)
4. CC1(C)C2CCC3(OCCO3)C1C1OC12 (stereo not given)
5. O=C1NC(=O)/C(=C/c2ccc(S(=O)(=O)N/N=C\C(O)C(O)C(O)C(O)CO)cc2)N1 (stereo not given)

1. > 100 µM (inactive)
2. > 100 µM (inactive)
3. > 100 µM (inactive)
4. > 100 µM (inactive)
5. > 100 µM (inactive)

Here are 2 compounds. What values of GI50 were reported for them?
1. COC(=O)[C@]12CC[C@H]3CN(C(=O)OCc4ccccc4)[C@H]([C@H]31)[C@H](c1ccco1)N2
2. CCN(CC)c1ccc2cc(C(=O)Nc3nc(C45CC6CC(CC(C6)C4)C5)cs3)c(=O)oc2c1

["> 100 µM (inactive)", "> 100 µM (inactive)"]
